Target: human CD45-cytoplasmic domain (Homo sapiens)
Sequence (P08575 599-1306 limits assumed): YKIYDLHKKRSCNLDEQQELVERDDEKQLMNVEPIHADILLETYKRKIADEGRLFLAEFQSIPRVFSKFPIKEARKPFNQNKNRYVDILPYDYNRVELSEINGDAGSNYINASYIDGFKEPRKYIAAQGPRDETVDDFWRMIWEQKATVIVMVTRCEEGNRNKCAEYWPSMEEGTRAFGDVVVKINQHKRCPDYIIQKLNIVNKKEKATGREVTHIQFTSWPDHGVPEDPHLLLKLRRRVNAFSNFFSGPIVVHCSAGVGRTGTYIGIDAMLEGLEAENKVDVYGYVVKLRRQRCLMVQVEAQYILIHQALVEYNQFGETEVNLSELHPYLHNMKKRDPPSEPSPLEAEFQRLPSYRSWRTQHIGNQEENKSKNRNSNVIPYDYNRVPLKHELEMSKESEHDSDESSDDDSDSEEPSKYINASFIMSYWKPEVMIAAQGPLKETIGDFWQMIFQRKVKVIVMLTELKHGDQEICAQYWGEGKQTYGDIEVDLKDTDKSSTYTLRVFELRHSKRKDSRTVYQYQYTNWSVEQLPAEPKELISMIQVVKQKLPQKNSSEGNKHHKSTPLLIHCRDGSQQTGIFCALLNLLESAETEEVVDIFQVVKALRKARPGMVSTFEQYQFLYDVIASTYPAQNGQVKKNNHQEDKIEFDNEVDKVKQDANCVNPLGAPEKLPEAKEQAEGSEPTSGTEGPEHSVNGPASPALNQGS
VALUE_KIND: Ki
Include the unit after the number when you answer.

Look up and state reported Ki for CC(C)C[C@H](NC(=O)[C@H](Cc1ccc(C(Br)P(=O)(O)O)cc1)NC(=O)[C@@H](N)CC(=O)O)C(=O)O (stereo partly shown)
16 µM

Source of measurements: patent US9399653B2
